Tested on: NCI-H23 lung
Experiment: NCI-60 one-dose screen, 48 h (100 = growth as untreated, 0 = no growth, -100 = all killed)
Details: 10 µM unless noted
About 83,000 compounds went through this panel and 20% of them were active in at least one assay; those are over-represented in the sample as a whole.
For each entry below, report its growth value.
Answer in %, number only, no unit symbol.

Recorded growth (molecule `C/C(Cc1ccc(Cl)cc1)=C(\c1ccc(O)cc1)c1ccc(Cl)cc1` ): 85.2

Recorded growth (molecule `COc1ccc(F)cc1/C=C/C(=O)/C=C(/C=C/c1cc(F)ccc1OC)OB(F)F` ): 35.2

Recorded growth (molecule `CCCCCCCCCCCCCCCCCCOc1ccccc1CC(=O)OCC[N+](C)(C)C` ): 40.2

Recorded growth (molecule `Cc1cn(-c2cc(NC(=O)c3cccc(C#Cc4cccc5[nH]nc(N)c45)c3)cc(C(F)(F)F)c2)cn1` ): 37.1

Recorded growth (molecule `CCNCCNc1cc(C2CCCCC2)c(C#N)c2nc3ccccc3n12` ): 44.7

Recorded growth (molecule CCc1ncnc2c1ccn2C(C)c1ccc(OC)c(F)c1 (stereo unspecified) ): 38.9

Recorded growth (molecule `Cc1sc2nc(NCCc3c[nH]c4ccc(Cl)cc34)[nH]c(=O)c2c1C` ): 61.6

Recorded growth (molecule `NC(N)=NCCCCCNc1noc(Cc2c[nH]c3cc(Br)ccc23)n1` ): 64

Recorded growth (molecule `O=S(=O)(c1ccccc1)n1cc2c(c1)-c1nc(Nc3ncccn3)sc1CC2` ): 61.9

Recorded growth (molecule `O=S(=O)(Nc1ccc(F)cc1F)c1ccc(-c2cnc(C3CC3)o2)cc1` ): 38

Recorded growth (molecule `N#Cc1c(-c2ccccc2)cc(-c2ccc(Nc3nc(Nc4ccc(Cl)cc4)nc(Nc4ccc(Cl)cc4)n3)cc2)nc1N` ): 39.2

Recorded growth (molecule `COc1ccc(CN2c3ccccc3Sc3ccccc32)cc1F` ): 30.7

Recorded growth (molecule `O=c1[nH]c(-c2ccccc2)nc2sc3cc(O)ccc3c12` ): 84.6

Recorded growth (molecule `COc1ccc(OC)c(-c2nc(SCC(=O)c3ccc(C#N)cc3)[nH]c(=O)c2C#N)c1` ): 98.1

Recorded growth (molecule `S=c1sc2c(Cl)nc(-c3cccnc3)nc2n1-c1ccccc1` ): 17.5

Recorded growth (molecule `CN1C(=O)/C(=C\c2nc([P+](c3ccccc3)(c3ccccc3)c3ccccc3)c(N3CCOCC3)o2)SC1=S` ): 81.6

Recorded growth (molecule `Cc1[nH]c(C(=O)Nc2ccccc2OC2CCNCC2)c(Cl)c1Cl` ): 42.8

Recorded growth (molecule `O=C(Nc1ccc(Oc2cccc(Cl)c2)c(Cl)c1)c1cnccn1` ): 46.1

Recorded growth (molecule `O=c1c2cnn(-c3ccccc3)c2n2c(CN3CCOCC3)nnc2n1-c1ccccc1` ): 108

Recorded growth (molecule `Cc1ccc(C)n1-c1ccccc1-n1c(C)ccc1C` ): 107

Recorded growth (molecule `CN(C)CCNC(=O)c1cc2c3cc(Cl)ccc3[nH]c2c2ncccc12` ): 32.5

---

System: MCF7 breast
Assay: NCI-60 one-dose screen, 48 h (100 = growth as untreated, 0 = no growth, -100 = all killed)
Settings: 10 µM unless noted
The panel holds about 83,000 compounds, 20% with a hit somewhere; the sample as a whole holds those more often.
For each entry below, report its growth value.
Answer in %, number only, no unit symbol.

Test item `Cc1ccc(/C=C2\COc3ccc(O)cc3C2=O)cc1` ; MCF7 breast; reported growth was 12.8

Test item `Oc1c(Br)cc(Br)c2ccc(Cn3cc(-c4ccccc4C(F)(F)F)nn3)nc12` ; MCF7 breast; reported growth was 71.5

Test item `NC(=O)c1ccc(-c2c3ccccc3cc3c2ccc2ccccc23)cc1` ; MCF7 breast; reported growth was 17.7

Test item `[O-]/[N+](=C\c1ccc(-n2cc(Cc3ccccc3Cc3cn(-c4ccc(/C=[N+](/[O-])c5ccccc5)cc4)nn3)nn2)cc1)c1ccccc1` ; MCF7 breast; reported growth was 90.6

Test item `CC(C)c1ccc(-n2c(=S)[nH]c3sc4cc(O)ccc4c3c2=O)cc1` ; MCF7 breast; reported growth was 90.1

Test item `Clc1ccc2c(c1)C(c1c[nH]c3ccccc13)(c1c[nH]c3ccccc13)CCO2` ; MCF7 breast; reported growth was 103

Test item `CCOC(=O)c1cc(C)n(-c2ccc(C(=O)O)cc2)c1C` ; MCF7 breast; reported growth was 67.1

Test item `C#Cc1c2c(c(OC)c3c1OCO3)[C@H]([C@H]1OC(=O)c3c1ccc(OC)c3OC)N(C)CC2` ; MCF7 breast; reported growth was 55.5

Test item `COC(=O)c1c(C)nc(C)c2c1C(=O)C(Br)=C(NCc1ccccc1)C2=O` ; MCF7 breast; reported growth was -30.2

---

Test system: UACC-62 melanoma
Assay: NCI-60 one-dose screen, 48 h
Conditions: 10 µM unless noted
About 83,000 compounds went through this panel and 20% of them were active in at least one assay; those are over-represented in the sample as a whole. Active and inactive are the calls of the source. The calls were made as follows: active = growth percent below 10; inactive = the rest.
Entry note: the call must match one of 1 = active, -1 = inactive

In this assay, the call recorded for `Nc1nc2ccccc2c2c1S(=O)(=O)c1ccc(Cl)cc1C2=O` was what?
-1

In this assay, the call recorded for `CN(C)CC(C)(C)C(=O)/C=C/c1ccccc1` was what?
1

In this assay, the call recorded for C#CCNC(=O)[C@H](CC)[C@H]1CC[C@H](C)[C@H]([C@@H](C)[C@H](O)[C@H](C)C(=O)[C@H](CC)C2O[C@]3(C=CC(=O)[C@]4(CC[C@@](C)([C@H]5CC[C@](O)(CC)[C@H](C)O5)O4)O3)[C@H](C)C[C@@H]2C)O1 (some centres undefined) was what?
-1

In this assay, the call recorded for `O=C(/C=C/c1ccccc1)Nc1ncc(Cc2ccccc2Cl)s1` was what?
-1

---

Tested on: EKVX NSCLC
Assay: NCI-60 one-dose screen, 48 h (100 = growth as untreated, 0 = no growth, -100 = all killed)
Conditions: 10 µM unless noted
About 83,000 compounds went through this panel and 20% of them were active in at least one assay; those are over-represented in the sample as a whole.
For each entry below, report its growth value.
Answer in %, number only, no unit symbol.

Recorded growth (molecule `Nc1n[nH]c2cccc(C#Cc3cccc(NC(=O)c4cc(F)cc(C(F)(F)F)c4)c3)c12` ): 92.8

Recorded growth (molecule `Cc1ccc(Nn2c(SCC(=O)Nc3nc(-c4ccccc4)cs3)nc(C)c2C)cc1` ): 49.7

Recorded growth (molecule `COc1cc(OCc2cccc(Br)c2C)cc(OC)c1C=O` ): 80.8

Recorded growth (molecule `Cc1ccccc1/C=C/C(=O)c1cccc(OCCCCOc2cccc(C(=O)/C=C/c3ccccc3C)c2)c1` ): 94.6

Recorded growth (molecule `CCOCCNC1=C(Cl)C(=O)c2ccccc2C1=O` ): 106

Recorded growth (molecule `COc1ccc(OC)c(Nc2nnc(-c3ccc(O)c(OC)c3)o2)c1` ): 82.5

Recorded growth (molecule `O=C1Nc2ccccc2/C1=C/c1nc2ccccc2c(=O)[nH]1` ): 80.6

Recorded growth (molecule `CS(=O)(=O)Nc1cc(-c2ccc3ncnc(Nc4ccc5c(cnn5Cc5cccc(F)c5)c4)c3c2)cnc1Cl` ): 4.57

Recorded growth (molecule `C=C1C(=O)O[C@H]2[C@H]1CC/C(COC(=O)/C=C\C(=O)NCc1ccc(Cn3c(=O)sn(CCI)c3=O)cc1)=C\CC[C@@]1(C)O[C@@H]21` ): 61.7

Recorded growth (molecule `CCn1c(SCC(=O)N/N=C(\C)c2ccc(Cl)cc2)nc2c1c(=O)n(C)c(=O)n2C` ): 97.9

---

Test system: NCI/ADR-RES ovarian
Assay: NCI-60 one-dose screen, 48 h (100 = growth as untreated, 0 = no growth, -100 = all killed)
Settings: 10 µM unless noted
Compounds without any hit were thinned out: in the full panel of roughly 83,000, 20% have a hit.
Binarize growth at 90%; below is satisfied, at or above is not satisfied.

# strict comparison: is reported growth < 90%? input = `CCCCCCCC[C@@H]1N[C@@H](C(=O)OC)Cc2c1[nH]c1ccccc21`
satisfied

# strict comparison: is reported growth < 90%? input = `COc1cc(/C=C2/C=C(c3ccccc3)N(CCc3ccc(S(N)(=O)=O)cc3)C2=O)cc(OC)c1OC`
not satisfied

# strict comparison: is reported growth < 90%? input = O=C(OC(CO)C(=O)NC12CC3CC(CC(C3)C1)C2)c1ccc(Cl)cc1 (stereo not given)
not satisfied

# strict comparison: is reported growth < 90%? input = `Cc1ccc2c(n1)C(=O)C(Br)=C(C1CCCC1)C2=O`
not satisfied

---

System: A498 renal
Test: NCI-60 one-dose screen, 48 h (100 = growth as untreated, 0 = no growth, -100 = all killed)
Details: 10 µM unless noted
The panel holds about 83,000 compounds, 20% with a hit somewhere; the sample as a whole holds those more often. Calls of active or inactive are those of the source. The calls were made as follows: active = growth percent below 10; inactive = the rest.
recordedMetric: growth

Recorded growth (compound `CCOC(=O)c1c(C(=O)c2cn(C)c3ccc(Br)cc23)c(-c2cn(C)c3ccc(Br)cc23)n(NC(=O)OC(C)(C)C)c1C` ): 87.2% [100 µM] (inactive)

Recorded growth (compound `Nc1n[nH]c2cccc(C#Cc3cccc(C(=O)Nc4cc(C(F)(F)F)cc(C(F)(F)F)c4)c3)c12` ): 89.3% (inactive)

Recorded growth (compound `COc1ccc(/C=N\Nc2nc(SCCC(C)C)nc(-c3ccc(OC)cc3)c2C#N)cc1` ): 98.5% (inactive)

Recorded growth (compound `C=CCn1c(SCC(=O)Nc2ccc(C(=O)/C=C/c3ccc(Cl)cc3)cc2)nnc1-c1ccc(Br)cc1` ): 74.6% (inactive)

Recorded growth (compound CCOC(=O)C(=O)C(C(=O)OCC)c1ccccc1 (stereo not given) ): 107% (inactive)
